# assay: soluble on expression in E. coli; label from the status in PepcDB or PDB records
value_kind: soluble on expression in E. coli

INSERT INTO results (item_sequence, measurement) VALUES
  ('ISNKHFEQAIERVVAGMEKKTQVLQKEEKKTVAYHEAGHAIAGWFLQHADPLLKVSIIPRGKGLGYAQYLPKEQYLYSKDQLLDRMCMTLGGRVAEEIFFGRITTGAQDDLQKVTQMAYSQVVKFGMSEKVGPLSFETPAPGEMAFDKPYSEATAQLIDQEQFADLPEILDSGNLPICRKFSIPAICRFAGNFQFRQFANLPNCRKFSIPTICQFAGNFNFQKIADLPEKIVRDLVMNALRRTRDLLLEKRSDIERVALRLLEKEILNREDMIEL', 'not soluble'),
  ('GGSGSDIEAYFERIGYKNSRNKLDLETLTDILEHQIRAVPFENLNMHCGQAMELGLEAIFDHIVRRNRGGWCLQVNQLLYWALTTIGFQTTMLGGYFYIPPVNKYSTGMVHLLLQVTIDGRNYIVDAGSGSSSQMWQPLELISGKDQPQVPCIFCLTEERGIWYLDQIRREQYITNKEFLNSHLLPKKKHQKIYLFTLEPRTIEDFESMNTYLQTSPTSSFITTSFCSLQTPEGVYCLVGFILTYRKFNYKDNTDLVEFKTLTEEEVEEVLKNIFKISLGRNLVPKPGDGSLTI', 'soluble'),
  ('MGSKKLKRVGLSQELCDRLSRHQILTCQDFLCLSPLELMKVTGLSYRGVHELLCMVSRACAPKMQTAYGIKAQRSADFSPAFLSTTLSALDEALHGGVACGSLTEITGPPGCGKTQFCIMMSILATLPTNMGGLEGAVVYIDTESAFSAERLVEIAESRFPRYFNTEEKLLLTSSKVHLYRELTCDEVLQRIESLEEEIISKGIKLVILDSVASVVRKEFDAQLQGNLKERNKFLAREASSLKYLAEEFSIPVILTNQITTHLSGALASQADLVSPADDLSLSEGTSGSSCVIAALGNTWSHSVNTRLILQYLDSERRQILIAKSPLAPFTSFVYTIKEEGLVLQAYGNS', 'soluble'),
  ('SCTLGRLVSPGPCPRPYLVITEQPKQRGMRFRYECEGRSAGSILGESSTEASKTQPAIELRDCGGLREVEVTACLVWKDWPHRVHPHSLVGKDCTDGVCRVRLRPHVSPRHSFNNLGIQCVRKKEIEAAIERKIQLGIDPYNAGSLKNHQEVDMNVVRICFQASYRDQQGHLHRMDPILSEPVYDKKSTNTSELRICRINKESGPCTGGEELYLLCDKVQKEDISVVFSTASWEGRADFSQADVHRQIAIVFKTPPYEDLEISEPVTVNVFLQRLTDGVCSEPLPFTYLPRDHDSY', 'soluble'),
  ('MHAILNTFKSGVGDCVFMRLIKDDATFSIMIDCGKYTPEINLFIKEKLHKHIDLLIVTHIDDDHINGVCEMLIAMPEITIGKIFYNCYQLLSGEKIAALTKIVSSDIEILTQNLPKQRTDTNGKINMEHASVLASILLKNPQWNSAWEKTFYIENSLEPYPLGDGLGQLVFISPTSSELKTLDMNFAREYLRLTRHEVINAPFEGRETLFELVSRLVSMKIREREYVKKQKIAGLIDKYSVERWKKAKDFEPSGITDENKGSIAFIWEYKDTKVLFMGDAEPDIVKTAIVNKYGKVDNMKAIKVSHHGSKHSTSKELMEVIDSFDYFITGGSVGDKPSMETLVKIVDRGDNKVRTIHYNYDRNILMKDMASDESVELRQKYNFQIDTNNELEFEY', 'not soluble'),
  ('MAMLAYQVSKSIEINKSQSEIIDYLKDFKNWPEWSPWIILEPSCELTYSDNQGHVGAGYQWNGQRIGTGAVVLESTQEHRLDMELHFFRPIKSHGKVTLIVTPSQDGCTVEWQMQSRVPWYLFFLKTMFKSMVEMDYDRGLKMLKSQLETGQILSQLSEIGTRHQDLIHYVGLQGSGTIPELGPIMKKQTQRLYELMQKESLPVSGELFCYYLSMDMKLGHFEFVTCLPVSEMVEVPNGFVFGTIPACETFVIEHKGDYQFLGNAWSLGMNLTRQNGIKVKSKPLGIERYLNNPNETPKAGLRTEVILFKKLEHHHHHH', 'soluble'),
  ('MGSDKIHHHHHHMIIEELHIVNFKSIAAADCRFSPKVNCLVGNNGMGKTNLLDALHFLSFCRSHLSVPDNMVVRHGEEMALLQGLYRDESGDGIELLLSIRPGKHKVLRRNKKEYERLSDHIGRFPLVIVSPQDYQLILGGSDERRRFMDQQLCQQDPRYLSALIQYNRHLQQRNTMLKQDRHDDALMDVLELQMGSYAAEICNKRSRFIEDFLPVFNDLYSDISGSAEKVSLSYRSHLADGIPLEELLRRSRPKDYLLGFSSCGVHKDELEMLLGGVLIRKIGSEGQNKTFLISMKLAQFRHQQLHGDETPILLLDDIFDKLDATRVERIIRLVGGNGFGQIFITDTNRKNLDEIIASWSEDYRLFKIENGQIFQ', 'not soluble'),
  ('AIAEEWDVPQMKKEVESLKYQLAFQREMASKTIPELLKWIEDGIPKDPFLNPDLMKNNPWVEKGKCTIL', 'soluble'),
  ('TRDFMWRLGLNLTHYKNVVTDLPLKDMPVSGVHKLAVGRSVYDFYMKKWAGVDPENGDPLWYKNVKDANNKITGRTTTNDYAQADYYYTGKSSLPKVYGGFNTAFSYKGFELSTIFAYSIGNYIVDRDVTMLWHNGSSTGRAWSTEILNRWTPENRYTDVPALKTVSNSWNANSTRNLFNNSFLRMKNITLSYNFPQPMIKKISLNSLQLFVQADNLLTVSKNQGLDPEQDISGLTYYRYPAMRSISGGINVSF', 'not soluble'),
  ('MTYSHEVEHMCVVKKGPNHGPAPIPEEGKWVKSKEIVDISGLTHGIGWCAPQQGACKLTLNVKEGVIQEALVETIGCSGMTHSAAMAAEILPGKTILEALNTDLVCDAINTAMRELFLQIVYGRTQSAFSEGGLIIGAGLEDLGKGLRSQVGTLYGTLAKGPRYLEMAEGYIKNIFLDKNDEICGYEFVHMGKFMDEIKKGTDANEALKKVTGTYGRVTAEQGAVKHIDPRHE', 'not soluble');
